MEASUREMENT_NOTES: blockers of RIG-like receptor reporter activation – cell-based, Sendai virus stimulus, luciferase, 10K MLSCN set, TLR/RLR signaling modifier project, primary screen (AID 602276);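 note: firefly luciferase from ISG56 promoter only with Renilla not read in this screen; 0% = Sendai virus plus DMSO and 100% = medium plus DMSO without virus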
TEST_CONTEXT: HEK293 RL24 IRF3 luciferase reporter, at 10 µM, hits give high values
TEST_READOUT: inhibition (%)
Numbers only, in %.

CC1CCC(NC(=O)C2CCN(c3cnccn3)CC2)CC1 (stereo unspecified) = -0.638
COc1ccc2c(c1)CCc1c(C(=O)N3CC4(C)CC3CC(C)(C)C4)noc1-2 (stereo unspecified) = 1.5
O=C(NCc1ccccc1)C1CCN(S(=O)(=O)N2CCCCCC2)CC1 = -9.73

Quick one: give me inhibition for each item below, same order please.
1. C=CCn1c(C)cc(C(=O)CSc2nc3ccccc3c(=O)[nH]2)c1C
2. O=C(Cn1[nH]c(=O)c2ccccc2c1=O)OCC(=O)N1CCCc2ccccc21
3. CCOc1ccc2oc(-c3ccccc3)c(C(=O)N3CCN(CCO)CC3)c2c1
4. COc1cc(CC(=O)Oc2ccc3c(c2)OCO3)cc(OC)c1OC
5. CCOC(=O)c1c2n(c3ccc(O)cc13)CCCCC2
6. O=C(COc1ccc(S(=O)(=O)NC2CCCCC2)cc1)NCc1ccccn1

[-41.3, 8.5, 15.9, 2.88, -6.81, -5.78]

Quick one: give me inhibition for each item below, same order please.
1. COc1cccc(NC(=O)N2CCCC2C(=O)Nc2ccc3c(c2)OCO3)c1 (stereo unspecified)
2. O=C1CN(C(=O)COC(=O)C23CC4CC(CC(O)(C4)C2)C3)c2ccccc2N1
3. CC1(C)CC(=O)C2=C(C1)Nc1nc(SCCN3CCOCC3)[nH]c(=O)c1C2c1cccs1 (stereo unspecified)

1. 13.7
2. 8.83
3. -3.95

====

MEASUREMENT_NOTES: blockers of RIG-like receptor reporter activation – cell-based, Sendai virus stimulus, luciferase, 10K MLSCN set, TLR/RLR signaling modifier project, primary screen (AID 602276);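 note: firefly luciferase from ISG56 promoter only with Renilla not read in this screen; 0% = Sendai virus plus DMSO and 100% = medium plus DMSO without virus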
TEST_CONTEXT: HEK293 RL24 IRF3 luciferase reporter, at 10 µM, hits give high values
Rule: inhibition of 10% or more gives met; anything lower gives not met.

Worked set:
O=C(NC1CCCCCCC1)C1CCN(c2nc3ccccc3o2)CC1 = not met
CCCC(=O)Nc1ccc(NC(=O)c2ccccc2OC)cn1 = not met
COCCn1c(=O)[nH]c2cc(C(=O)N3CCN(c4ccccc4OC)CC3)ccc2c1=O = met
CCCCCCn1c(CN2CCCC(C)C2)nc2c1c(=O)n(C)c(=O)n2C (stereo unspecified) = met
CC1Cc2ccccc2N1C(=O)COC(=O)Cn1nnc(-c2ccccc2)n1 (stereo unspecified) = met

Attention now shifts to the item below.
Check the entry COc1ccccc1C(=O)Nc1ccc(N2CCN(Cc3ccccc3)CC2)cc1 : does inhibition equal or exceed 10%? not met

====

So I've got a bunch of molecules here, and I need their inhibition values.
MEASUREMENT_NOTES: endothelial E-selectin expression blockers – imaging, HUVEC, immunofluorescence, MLSMR starter and 10KST1 sets, primary screen (AID 487);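 note: signal is fraction of cell area covered by stained E-selectin grains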
TEST_CONTEXT: HUVEC TNFalpha-induced E-selectin immunofluorescence imaging, at 2 µM; hits give high values
Give bare numbers, in %.

CCCc1ccccc1OCCNC(C)=O = -76.7
Cc1ccc2cc(C#N)c(N3CCCC3)nc2c1C = -49.6
CSc1nnc(-c2nnc(SC)n2-c2ccccc2)n1-c1ccccc1 = -143
C=CCn1c(=O)c2ccccc2n2c(SC(C)C(=O)Nc3nc(-c4ccccc4)cs3)nnc12 (stereo unspecified) = -26
COc1cc(NC(=O)c2ccco2)c(OC)cc1NC(=O)CCC(=O)Nc1cc(C)cc(C)c1 = 26.4

Quick one: give me inhibition for each item below, same order please.
1. COc1cccc(-n2c(CNc3ccc(F)cc3)nnc2SCC(N)=O)c1
2. CC(C)=CCC(C)(C)C1OCCN1C(=O)c1ccccc1 (stereo unspecified)
3. O=C(Nc1c(C(=O)NCc2ccco2)cnn1-c1ccccc1)c1ccc(F)cc1
4. CCOC(=O)c1[nH]c(C)c(C(=O)Nc2ccc(C)c(Cl)c2)c1C
5. COc1cccc(NC(=O)C2CCN(c3ncccn3)CC2)c1
6. Cc1ccc2nc3c(cc2c1)CN(Cc1ccco1)C(=NCC1CCCO1)S3 (stereo unspecified)
7. Cc1cccc(Cn2c(=O)n(Cc3ccco3)c(=O)c3ccccc32)c1

-32.3
10.2
-23.9
-7.5
-62.3
-2.1
-39

Quick one: give me inhibition for each item below, same order please.
1. O=C(CN1CCN(Cc2ccc3c(c2)OCO3)CC1)N1CCc2[nH]c3ccc(F)cc3c2C1
2. Cc1cccc(NC(=O)CN(C)S(=O)(=O)c2ccccc2)n1
3. CC1(C)OC(=O)C(=CNc2ccccc2)C(=O)O1
4. NC1=NC(c2ccc(Br)cc2)n2c(nc3ccccc32)N1 (stereo unspecified)
5. CCc1nnc(NC(=O)CSc2nc(-c3ccc(OC)cc3)ns2)s1
6. CCN(CC)C(=O)C1CCC(CNS(=O)(=O)c2cccc3cccnc23)CC1 (stereo unspecified)
7. CCOCCn1cnc2sc(C(=O)Nc3nc(C)c(C(=O)OCC)s3)c(C)c2c1=O

1. 34.4
2. -24.3
3. 54.3
4. -44.9
5. -32.2
6. -26.3
7. -9.6

Quick one: give me inhibition for each item below, same order please.
1. COc1cccc(OCCn2ccnc2)c1
2. CCOC(=O)c1cccc(NC(=O)CSc2nnc(C3CCCCC3)n2C)c1
3. COCCNC(=O)CN(C)S(=O)(=O)c1ccc2c(c1)OCCO2
4. CCOC(=O)c1ccccc1NC(=O)c1c(O)c2ccccc2n(CC)c1=O
5. COc1ccccc1CNC(=O)C(C)NS(=O)(=O)c1ccccc1 (stereo unspecified)
6. Cc1cccc(OCC(=O)Nc2ccc(N3CCCC3)cc2)c1C

-24.7
18
-59.8
20.2
-11.2
-53.5
